All figures here come from paper PMC9482650.

Experimental target: GRIP2_7, Q9C0E4
Sequence (Q9C0E4 934-1023): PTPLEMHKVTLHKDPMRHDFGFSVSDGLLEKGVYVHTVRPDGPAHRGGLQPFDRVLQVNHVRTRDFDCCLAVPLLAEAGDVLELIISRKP
Test details: holdup assay
Set-up: key: below the threshold = too weak to quantify, mostly under pKd 3.1 to 4
Run conditions: plain residues with an end cap or a label only (N-terminal biotin on a linker: ado-ado)
Test readout: pKd

>  <Binder>
FHSIKQSTAV [CRHR1, P34998]

>  <Readout value>
below the threshold

$$$$
>  <Binder>
GVHSNDHSVV [LPAR1, Q92633]

>  <Readout value>
below the threshold

$$$$
>  <Binder>
KIEDVEITLV [FCHSD2, O94868]

>  <Readout value>
below the threshold

$$$$
>  <Binder>
PAALPESTHM [SLC9A3, P48764]

>  <Readout value>
below the threshold

$$$$
>  <Binder>
EFKQTSSFLV [JAM1, Q9Y624]

>  <Readout value>
3.86

$$$$
>  <Binder>
MQILSKPEFI [NPSR1, Q6W5P4]

>  <Readout value>
3.69

$$$$
>  <Binder>
RSPVATATSC [DUSP5, Q16690]

>  <Readout value>
below the threshold

$$$$
>  <Binder>
HLSTRQGTCV [ATRNL1, Q5VV63]

>  <Readout value>
below the threshold

$$$$
>  <Binder>
PDSYHRRDFW [U2AF2, P26368]

>  <Readout value>
below the threshold

$$$$
>  <Binder>
DYSNLRETDI [ADRA1D, P25100]

>  <Readout value>
below the threshold

$$$$

[Q] Sample PSDSVGKDVF [EGLN1, Q9GZT9] — what was its pKd?
[A] below the threshold

[Q] Also LVEEEEPMNL [HDAC7, Q8WUI4] ?
[A] below the threshold

[Q] Also ATKDKKITTV [EXOC4, Q96A65] ?
[A] 3.52

[Q] Also TKDKVQETQI [LRRC4, Q9HBW1] ?
[A] below the threshold

[Q] Also HDDYFYHDEL [RCN2, Q14257] ?
[A] below the threshold

[Q] Also PLATCDETSI [SEMA4F, O95754] ?
[A] below the threshold
